- assay.protocol: Lipophilicity, log P of the compound
- Type: physicochemical
- assay.conditions: octanol/water
measured.quantity: logP

> print(dat)
                                   compound  test.result
1  C=C(c1ccc2ccc3ccccc3c2c1)C1CCC2(CC1)COC(Nc1ccc(C(F)(F)F)cc1)OO2 (centres undefined)         7.51
2  C=C(c1ccc2c(c1)Cc1ccccc1-2)C1CCC2(CC1)COC(Nc1cccc(C(F)(F)F)c1)OO2 (centres undefined)         7.25
3  C=C(c1ccc2ccccc2c1)C1CCC2(CC1)COC(Nc1cccc(C(F)(F)F)c1)OO2 (centres undefined)         6.51
4  C=C(c1ccc2ccc3ccccc3c2c1)C1CCC2(CC1)COC(Nc1ccc(C)cc1)OO2 (centres undefined)         7.07
